Tested on: DU-145
Protocol Text: Growth inhibition of human DU-145 cells assessed as cell growth at 1 uM incubated for 48 hrs by sulforhodamine B assay relative to control
Assay type: functional
Experimental Conditions: read-out: Activity
Reported growth at 1 µM values for a set of compounds
Give the number; % is assumed, so skip it.

Please review the following examples before continuing.
Smiles Record: CN1CCc2nc3sc(C(N)=O)c(N)c3c(-c3cccs3)c2C1
growth at 1 µM [%]: 108

Smiles Record: CCc1ccccc1NC(=O)c1sc2nc3c(cc2c1N)C(=O)CCC3
growth at 1 µM [%]: 27

Please report the recorded growth at 1 µM for CCc1cccc(C)c1NC(=O)c1sc2nc3c(cc2c1N)C(=O)CCC3 .
21

====

Reported growth at 100 µM values for a set of compounds
Tested on: NCI-H460
Protocol Text: Growth inhibition of human NCI-H460 cells assessed as cell growth at 100 uM incubated for 48 hrs by sulforhodamine B assay relative to control
Format: functional
Experimental Conditions: read-out: Activity
Give the number; % is assumed, so skip it.

Please review the following examples before continuing.
Smiles Record: CCc1cccc(C)c1NC(=O)c1sc2nc3c(cc2c1N)C(=O)CCC3
growth at 100 µM [%]: -33
--
Smiles Record: Cc1ccc(NC(=O)c2sc3nc4c(cc3c2N)C(=O)CCC4)cc1C
growth at 100 µM [%]: -9
--
Smiles Record: Cc1cc(C)c(NC(=O)c2sc3nc4c(cc3c2N)CN(Cc2ccccc2)CC4)c(C)c1
growth at 100 µM [%]: -25
--
Smiles Record: CN1CCc2nc3sc(C(N)=O)c(N)c3c(-c3cccs3)c2C1
growth at 100 µM [%]: 2
--
Smiles Record: CCc1ccccc1NC(=O)c1sc2nc3c(cc2c1N)C(=O)CCC3
growth at 100 µM [%]: 3

Please report the recorded growth at 100 µM for Nc1c(C(=O)Nc2ccccc2)sc2nc3c(cc12)CN(Cc1ccccc1)CC3 .
8

Then what about the compound COc1cccc(NC(=O)c2sc3nc4c(cc3c2N)CN(Cc2ccccc2)CC4)c1 ?
-25

Then what about the compound Cc1cccc(NC(=O)c2sc3nc4c(cc3c2N)C(=O)CCC4)c1 ?
7

====

System: NCI-H322M
Protocol Text: Growth inhibition of human NCI-H322M cells assessed as cell growth at 10 uM incubated for 48 hrs by sulforhodamine B assay relative to control
Type: functional
Experimental Conditions: read-out: Activity
Measurement Label: growth at 10 µM (%)
Give the number; % is assumed, so skip it.

Please report the recorded growth at 10 µM for CCOc1ccc(-c2cc(N)n(S(=O)(=O)c3ccc(OC)cc3)n2)cc1 .
102

Then what about the compound O=S(=O)(c1ccccc1)n1ccc(-c2ccc3c(c2)CCO3)n1 ?
91.4

Then what about the compound CC1(C)CCc2cc(-c3ccn(S(=O)(=O)c4ccccc4)n3)ccc2O1 ?
91.7

Then what about the compound CC1(C)CCc2cc(-c3ccn(S(=O)(=O)c4ccc(C(F)(F)F)cc4)n3)ccc2O1 ?
105

Then what about the compound CC(C)N1CCc2nc3sc(C(=O)Nc4ccccc4)c(N)c3cc2C1 ?
108

Then what about the compound CCc1cccc(C)c1NC(=O)c1sc2nc3c(cc2c1N)C(=O)CCC3 ?
32

Then what about the compound CCc1ccccc1NC(=O)c1sc2nc3c(cc2c1N)C(=O)CCC3 ?
46.3
